SYSTEM UNDER TEST: recombinant human PAI-1 (Homo sapiens)
EXPERIMENT: Test Example 1: human PAI-1 inhibitory activity (tPA fluorogenic substrate, pH7.5 Tris buffer)
Type: biochemical
Set-up: purchased Molecular Innovations, Inc
STUDY CONDITIONS: compound 10 μM; Tris buffer pH7.5
MEASURED ENDPOINT: Inhibition Rate of Human PAI-1 Activity (%)

Use these answered entries as a reference point.
MOLECULAR STRING | SYSTEM UNDER TEST | UNITS LABEL | OBS VALUE
CC(C)(C)c1ccc(COc2ccc(-c3ccccc3)cc2/C=C/C(=O)O)cc1 | recombinant human PAI-1 (Homo sapiens) | % | 49
CC(C)(C)c1ccc(COc2ccc(-c3cccc(OC(F)(F)F)c3)cc2/C=C/C(=O)O)cc1 | recombinant human PAI-1 (Homo sapiens) | % | 72
COc1ccc(-c2ccc(OCc3ccc(C(C)(C)C)cc3)c(CCC(=O)O)c2)cc1 | recombinant human PAI-1 (Homo sapiens) | % | 34
CC(C)(C)c1ccc(-c2ccc(OCc3ccc(OC(F)(F)F)cc3)c(CCC(=O)O)c2)cc1 | recombinant human PAI-1 (Homo sapiens) | % | 64
O=C(O)Cc1cc(-c2ccc(OC(F)(F)F)cc2)ccc1OCc1ccccc1 | recombinant human PAI-1 (Homo sapiens) | % | 31
CC(C)(C)c1ccc(COc2ccc(-c3ccc(C(F)(F)F)cc3)cc2CCC(=O)O)cc1 | recombinant human PAI-1 (Homo sapiens) | % | 60
COc1ccccc1-c1ccc(OCc2ccc(C(C)(C)C)cc2)c(CCC(=O)O)c1 | recombinant human PAI-1 (Homo sapiens) | % | 47
O=C(O)CCc1cc(-c2ccc(OC(F)(F)F)cc2)ccc1OCc1ccc(Cl)cc1Cl | recombinant human PAI-1 (Homo sapiens) | % | 29
CC(C)(C)c1ccc(COc2ccc(-c3ccc(C(F)(F)F)cc3)cc2/C=C/C(=O)O)cc1 | recombinant human PAI-1 (Homo sapiens) | % | 57
CC(C)(C)c1ccc(-c2ccc(OCc3ccccc3OC(F)(F)F)c(CCC(=O)O)c2)cc1 | recombinant human PAI-1 (Homo sapiens) | % | 70

A = O=C(O)CCc1cc(-c2ccc(OC(F)(F)F)cc2)ccc1OCc1ccc(C(F)(F)F)cc1
B = CC(C)(C)c1ccc(COc2ccc(-c3ccc(F)cc3)cc2CCC(=O)O)cc1
C = O=C(O)CCc1cc(-c2ccccc2)ccc1OCc1ccc(OC(F)(F)F)cc1
D = COc1ccccc1COc1ccc(-c2ccc(OC(F)(F)F)cc2)cc1CCC(=O)O
E = CC(C)(C)c1ccc(COc2ccc(-c3ccc(OC(F)(F)F)cc3)cc2/C=C/C(=O)O)cc1
Ordering: ascending Inhibition Rate of Human PAI-1 Activity (%). Returns: the labels arranged in the requested order. D, A, C, B, E

###

SYSTEM UNDER TEST: recombinant human PAI-1 (Homo sapiens, UniProt P05121)
Sequence (P05121 24-402): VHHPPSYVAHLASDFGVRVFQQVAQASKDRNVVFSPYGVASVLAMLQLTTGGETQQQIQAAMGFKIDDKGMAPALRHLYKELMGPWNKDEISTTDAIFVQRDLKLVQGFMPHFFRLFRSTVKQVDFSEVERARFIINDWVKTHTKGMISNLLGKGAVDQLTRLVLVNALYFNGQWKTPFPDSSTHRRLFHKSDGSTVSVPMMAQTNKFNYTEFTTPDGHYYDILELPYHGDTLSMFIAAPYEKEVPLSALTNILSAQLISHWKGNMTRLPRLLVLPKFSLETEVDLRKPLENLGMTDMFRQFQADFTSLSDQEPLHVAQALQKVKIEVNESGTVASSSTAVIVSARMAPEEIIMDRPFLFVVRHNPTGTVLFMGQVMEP
EXPERIMENT: Test Example 1: human PAI-1 inhibitory activity (tPA fluorogenic substrate, pH7.5 Tris buffer)
Assay type: biochemical
Design: purchased Molecular Innovations, Inc
STUDY CONDITIONS: compound 5 μM; Tris buffer pH7.5
Structures can show the parent of a compound that is named as a salt.
MEASURED ENDPOINT: Inhibition Rate of Human PAI-1 Activity (%)

COMPOUND | UNITS LABEL | OBS VALUE
COc1ccc(COc2ccc(-c3ccc(OC(F)(F)F)cc3)cc2CCC(=O)O)cc1 | % | 15

I = CC(C)(C)c1ccc(COc2ccc(-c3cccc(OC(F)(F)F)c3)cc2CCC(=O)O)cc1
II = CC(C)(C)c1ccc(COc2ccc(-c3ccc(OC(F)(F)F)cc3)cc2NC(=O)C(=O)O)cc1 [Compound 6, sodium salt]
III = O=C(O)CCc1cc(-c2ccccc2)ccc1OCc1ccc(OC(F)(F)F)cc1
Hey, quick one: sort these by Inhibition Rate of Human PAI-1 Activity (%), top value first please. Put the labels in the order asked and list them. II, I, III

###

SYSTEM UNDER TEST: recombinant human PAI-1 (Homo sapiens, UniProt P05121)
EXPERIMENT: Test Example 1: human PAI-1 inhibitory activity (tPA fluorogenic substrate, pH7.5 Tris buffer)
Type: biochemical
Parameters: purchased Molecular Innovations, Inc
STUDY CONDITIONS: compound 5 μM; Tris buffer pH7.5
MEASURED ENDPOINT: Inhibition Rate of Human PAI-1 Activity (%)

MOLECULE | UNITS LABEL | OBS VALUE
CC(C)(C)c1ccc(-c2ccc(OCc3ccc(OC(F)(F)F)cc3)c(CCC(=O)O)c2)cc1 [Compound 57] | % | 28
CC(C)(C)c1ccc(COc2ccc(-c3ccc(C(C)(C)C)cc3)cc2/C=C/C(=O)O)cc1 [Compound 44] | % | 25
CC(C)(C)c1ccc(COc2ccc(-c3ccc(C(F)(F)F)cc3)cc2/C=C/C(=O)O)cc1 [Compound 40] | % | 28
CC(C)(C)c1ccc(COc2ccc(-c3ccc(C(F)(F)F)cc3)cc2CCC(=O)O)cc1 [Compound 41] | % | 23

###

SYSTEM UNDER TEST: recombinant human PAI-1 (Homo sapiens)
EXPERIMENT: Test Example 1: human PAI-1 inhibitory activity (tPA fluorogenic substrate, pH7.5 Tris buffer)
Type: biochemical
Design: purchased Molecular Innovations, Inc
STUDY CONDITIONS: compound 25 μM; Tris buffer pH7.5
MEASURED ENDPOINT: Inhibition Rate of Human PAI-1 Activity (%)

COMPOUND | OBS VALUE
CC(C)(C)c1ccc(COc2ccc(-c3ccccc3)cc2/C=C/C(=O)O)cc1 [Compound 36] | 89
COc1ccccc1-c1ccc(OCc2ccc(C(C)(C)C)cc2)c(CCC(=O)O)c1 [Compound 62] | 91
CN(C(=O)C(=O)O)c1cc(-c2ccc(OC(F)(F)F)cc2)ccc1OCc1ccc(C(C)(C)C)cc1 [Compound 18] | 97
O=C(O)CCc1cc(-c2ccccc2)ccc1OCc1ccc(OC(F)(F)F)cc1 [Compound 58] | 74

###

SYSTEM UNDER TEST: recombinant human PAI-1 (Homo sapiens, UniProt P05121)
EXPERIMENT: Test Example 1: human PAI-1 inhibitory activity (tPA fluorogenic substrate, pH7.5 Tris buffer)
Assay type: biochemical
Parameters: purchased Molecular Innovations, Inc
STUDY CONDITIONS: compound 5 μM; Tris buffer pH7.5
MEASURED ENDPOINT: Inhibition Rate of Human PAI-1 Activity (%)

These solved cases illustrate the format of a correct answer.
MOLECULAR STRING | OBS VALUE
CC(C)(C)c1ccc(-c2ccc(OCc3ccccc3OC(F)(F)F)c(CCC(=O)O)c2)cc1 | 37
CC(C)(C)c1ccc(-c2ccc(OCc3ccc(C(F)(F)F)cc3)c(CCC(=O)O)c2)cc1 | 47
CSc1ccc(-c2ccc(OCc3ccc(C(C)(C)C)cc3)c(/C=C/C(=O)O)c2)cc1 | 16
O=C(O)CCc1cc(-c2ccc(OC(F)(F)F)cc2)ccc1OCc1ccccc1 | 35
COc1ccccc1-c1ccc(OCc2ccc(C(C)(C)C)cc2)c(/C=C/C(=O)O)c1 | 21

P = O=C(O)CCc1cc(-c2ccc(OC(F)(F)F)cc2)ccc1OCc1ccc(Cl)cc1Cl
Q = CC(C)(C)c1ccc(COc2ccc(-c3ccc(OC(F)(F)F)cc3)cc2/C=C/C(=O)O)cc1
Field: lower recorded Inhibition Rate of Human PAI-1 Activity (%) (choose P or Q ) Respond with the label that goes with your answer. P
(P: 5%, Q: 84%)

###

SYSTEM UNDER TEST: recombinant human PAI-1 (Homo sapiens, UniProt P05121)
EXPERIMENT: Test Example 1: human PAI-1 inhibitory activity (tPA fluorogenic substrate, pH7.5 Tris buffer)
Format: biochemical
Parameters: purchased Molecular Innovations, Inc
STUDY CONDITIONS: compound 25 μM; Tris buffer pH7.5
MEASURED ENDPOINT: Inhibition Rate of Human PAI-1 Activity (%)

COMPOUND | OBS VALUE
CCCCc1ccc(COc2ccc(-c3ccc(C(C)(C)C)cc3)cc2CCC(=O)O)cc1 [Compound 78] | 93
CCCCc1ccc(-c2ccc(OCc3ccc(C(C)(C)C)cc3)c(CCC(=O)O)c2)cc1 [Compound 48] | 94
O=C(O)CCc1cc(-c2ccc(OC(F)(F)F)cc2)ccc1OCc1ccc(C(F)(F)F)cc1 [Compound 26] | 80
CC(C)(C)c1ccc(-c2ccc(OCc3cccc(OC(F)(F)F)c3)c(CCC(=O)O)c2)cc1 [Compound 75] | 95

###

SYSTEM UNDER TEST: recombinant human PAI-1 (Homo sapiens, UniProt P05121)
EXPERIMENT: Test Example 1: human PAI-1 inhibitory activity (tPA fluorogenic substrate, pH7.5 Tris buffer)
Format: biochemical
Parameters: purchased Molecular Innovations, Inc
STUDY CONDITIONS: compound 5 μM; Tris buffer pH7.5
MEASURED ENDPOINT: Inhibition Rate of Human PAI-1 Activity (%)

MOLECULAR STRING | OBS VALUE
CC(C)(C)c1ccc(-c2ccc(OCc3ccccc3)c(CCC(=O)O)c2)cc1 | 20

A = CC(C)(C)c1ccc(COc2ccc(-c3ccccc3)cc2CCC(=O)O)cc1
B = CC(C)(C)c1ccc(-c2ccc(OCc3cccc(OC(F)(F)F)c3)c(CCC(=O)O)c2)cc1
C = COc1ccc(-c2ccc(OCc3ccc(C(C)(C)C)cc3)c(CCC(=O)O)c2)cc1
Please put the entries in order of rising Inhibition Rate of Human PAI-1 Activity (%). Answer by writing out the labels in the requested order. C, A, B
